test system: A498 renal; assay: NCI-60 one-dose screen, 48 h (100 = growth as untreated, 0 = no growth, -100 = all killed); details: 10 µM unless noted
This is part of a sample that, as a whole, favours compounds with a hit. Of some 83,000 tested, about 20% had one in any assay.
Measured parameter: growth (%)
Answer in %, number only, no unit symbol.

Cc1ccc(/C=C/C(=N/N=C(N)N)c2ccccc2)cc1
-5.04
COc1ccc2c(c1)CCCC21C(=O)Nc2ccccc21 (stereo not given)
99.7
Cc1ccccc1CNc1ncnc2[nH]ncc12
93.9
[Ag].[Ag].[NH-]S(=O)(=O)c1ccc(N=Nc2cc(N=Nc3ccc(S([NH-])(=O)=O)cc3)c3c(NC(=O)C(Cl)Cl)cccc3c2OC(=O)C(Cl)Cl)cc1.[c-]1nccs1.[c-]1nccs1
101

We now examine a further compound.
Request: Lab note: need growth for CCCCCCCCNC(C)C(O)c1ccc(SC(C)C)cc1 (stereo not given) on A498 renal, anyone have it?
Response: 96.8

====

tested on: BT-549 breast; assay: NCI-60 one-dose screen, 48 h (100 = growth as untreated, 0 = no growth, -100 = all killed); settings: 10 µM unless noted
This is part of a sample that, as a whole, favours compounds with a hit. Of some 83,000 tested, about 20% had one in any assay.
Measured parameter: growth (%)
Answer in %, number only, no unit symbol.

CSC1=NC(=Nc2c(C)cccc2C)C2(CCC(C(C)(C)C)CC2)N1c1ccc(Cl)cc1 (stereo not given)
81.4

Request: Lab note: need growth for COc1ccc(/C=C(/C(=O)N2CCN(c3ccccc3)CC2)c2cc(OC)c(OC)c(OC)c2)cc1O on BT-549 breast, anyone have it?
Response: 8.46

Request: Lab note: need growth for O=C(Nc1ccc(Oc2ccc(Nc3nc4ccccc4s3)cc2)cc1)Nc1ccc(Cl)c(C(F)(F)F)c1 on BT-549 breast, anyone have it?
Response: -1.46

Request: Lab note: need growth for O=C(OCc1ccc2c(Br)cc(Br)c(O)c2n1)c1cc2ccccc2[nH]1 on BT-549 breast, anyone have it?
Response: -84.3

Request: Lab note: need growth for CCN(CC)c1ccc(C(=N)c2ccc(N(C)C)cc2)cc1 on BT-549 breast, anyone have it?
Response: 28.9

====

test system: U251 CNS; test: NCI-60 one-dose screen, 48 h (100 = growth as untreated, 0 = no growth, -100 = all killed); conditions: 10 µM unless noted
This is part of a sample that, as a whole, favours compounds with a hit. Of some 83,000 tested, about 20% had one in any assay.
# note: exactly 90% is not below, so it is 0; use 1 for growth strictly under it

Observe how each entry below is paired with its result.
C/C(=N\OC(=O)Nc1cccc(Cl)c1)c1ccccc1
0
O=C(/C=C/c1cccc([N+](=O)[O-])c1)c1ccc(Nc2nc(N3CCCCC3)nc(N3CCCCC3)n2)cc1
0
Fc1ccc2c(CN3CCO[C@H](COc4cccc(Cl)c4)C3)c[nH]c2c1
1

Request: Please let me know if CCN(C)CCCOc1ccc(/C(=C(\C)Cc2cccc(OC)c2)c2ccc(OC(C)=O)cc2)cc1 shows growth below 90%.
Response: 0

Request: Please let me know if CCOc1c(C#N)c2c(N)ncnc2n1C1OC(CO)C(O)C1O (stereo not given) shows growth below 90%.
Response: 1

Request: Please let me know if CC(=O)c1nn(-c2ccccc2)/c(=N\N=C\c2coc3ccc(F)cc3c2=O)s1 shows growth below 90%.
Response: 0

Request: Please let me know if COc1ccc(/C(=C\c2cc(OC)c(OC)c(OC)c2)C(=O)N2CCNCC2)cc1 shows growth below 90%.
Response: 0

Request: Please let me know if Cc1ccc(O)c(Cc2ccccc2)c1 shows growth below 90%.
Response: 0

Request: Please let me know if O=C(Nc1ccccc1)C(CCCCN1C(=O)c2ccccc2C1=O)N1C(=O)c2ccccc2C1=O (stereo not given) shows growth below 90%.
Response: 0

====

Tested on: SF-295 CNS
Assay: NCI-60 one-dose screen, 48 h
Settings: 10 µM unless noted
Procedure: Cells are grown in 96 well plates and exposed to the test compound for 48 hours. Compounds are tested at a single concentration, which is 10^-5 M for most compounds. The reported endpoint is percent growth (GI% or GIPRCNT), where numbers from 0 - 100% represent growth inhibition, and numbers from -100% - 0 represent cell death. For example, a value of 40 represents 60% growth inhibition. A value of 0 means no net growth occurred over the course of the experiment. […]
The panel holds about 83,000 compounds, 20% with a hit somewhere; the sample as a whole holds those more often. The source made the active and inactive calls. Rule for the calls: active = growth percent below 10; inactive = the rest.
Assign a class; possible classes are active, inactive

Observe how each entry below is paired with its result.
COc1cc(C(=O)/C=C/c2cn(-c3ccccc3)nc2-c2cccc(Nc3ccnc4cc(Cl)ccc34)c2)cc(OC)c1OC
inactive
COc1ccc(-c2oc(=O)ccc2-c2cc(OC)c(OC)c(OC)c2)cc1F
inactive
Cc1cc(C)c2c(NC(=O)Nc3ccc(Cl)c(Cl)c3)n[nH]c2n1
inactive
CC(=O)c1cccc(Nc2ncnc3ccc(NC(=O)c4ccco4)cc23)c1
inactive
Cc1ccc(NC(=O)c2nc(S(C)(=O)=O)oc2-c2ccc(F)cc2)cc1Nc1ccc2ncn(C)c(=O)c2c1
inactive
COc1cc(C2CC(c3cccc(Nc4ccnc5cc(Cl)ccc45)c3)=NN2c2ccc(Cl)cc2)cc(OC)c1OC (stereo unspecified)
active
N#Cc1nc(-c2cccc(Br)c2)cc(-c2ccc(Nc3nc(N4CCCCC4)nc(N4CCCCC4)n3)cc2)c1N
inactive
Cc1ccc(C2CC(c3cccs3)=NN2c2ccc(S(N)(=O)=O)cc2)s1 (stereo unspecified)
inactive

Request: What call does the record list for CC(OC(=O)Nc1cccc(Cl)c1)C(=O)O (stereo unspecified) ?
Response: inactive

Request: What call does the record list for CC[C@H](Nc1nc(N)nc(N)c1Cl)c1nc2cccc(NCc3ccc(C(=O)NO)cc3)c2c(=O)n1-c1ccccc1 ?
Response: inactive

Request: What call does the record list for CN1CCN(Cc2ccc(NC(=O)c3cncc(C#Cc4ccc(N)nc4)c3)cc2C(F)(F)F)CC1 ?
Response: inactive

Request: What call does the record list for COc1ccc([C@@H]2[C@@H](Cl)C(=O)N2c2cc(OC)c(OC)c(OC)c2)cc1C ?
Response: inactive

Request: What call does the record list for Cc1ccccc1N1C(c2ccccc2)=NNC12C=CC(=O)c1c(O)cccc12 (stereo unspecified) ?
Response: inactive

====

Measured growth, listed per entry.
test system: CCRF-CEM leukemia; test: NCI-60 one-dose screen, 48 h (100 = growth as untreated, 0 = no growth, -100 = all killed); conditions: 10 µM unless noted
Compounds without any hit were thinned out: in the full panel of roughly 83,000, 20% have a hit.
Answer in %, number only, no unit symbol.

COc1cc(/C=C/C(=O)c2ccc(NC(=O)CSc3nnc(-c4ccc(Cl)cc4)n3-c3ccccc3)cc2)cc(OC)c1OC
57.8
NS(=O)(=O)c1ccc(N2N=C(c3cccs3)CC2c2ccccc2O)cc1 (stereo not given)
4.36
CC(=O)O[C@H]1[C@H](CC#CC#CC[C@@H]2C[C@]3(C)[C@H]4CC=C5[C@H]6[C@@H](C)[C@H](C)CC[C@]6(C(=O)NCCN(CCN)CCN)CC[C@@]5(C)[C@]4(C)CC[C@H]3C(C)(C)[C@H]2OC(C)=O)C[C@]2(C)[C@H]3CC=C4[C@H]5[C@@H](C)[C@H](C)CC[C@]5(C(=O)NCCN(CCN)CCN)CC[C@@]4(C)[C@]3(C)CC[C@H]2C1(C)C
19.8
C1=C\CCCCN2CC[C@H]3[C@H](CCCC/C=C\CCCN4C[C@@H](CCCCC/1)C[C@@H]3C4)C2
7.61

Request: Looking for the measured growth of Nc1nc(N)c2c(n1)NC(c1sc(Cl)nc1Cl)CC(c1ccc3c(c1)OCO3)=N2 (stereo not given) , can you help?
Response: 11.1

====

tested on: SN12C renal; test: NCI-60 one-dose screen, 48 h; conditions: 10 µM unless noted
This is part of a sample that, as a whole, favours compounds with a hit. Of some 83,000 tested, about 20% had one in any assay. Active and inactive are the calls of the source. Rule for the calls: active = growth percent below 10; inactive = the rest.
Assign a class; possible classes are T for active, F for inactive

Observe how each entry below is paired with its result.
Cc1n(Cc2ccc3ccccc3n2)cc[n+]1Cc1ccc2ccccc2c1
T
COc1cccc2nc(Nc3cccc(NC(=O)c4ccc(N5CCN(C)CC5)c(C(F)(F)F)c4)c3)ccc12
F
CCCC(CCC)NCC(O)c1cc(-c2ccc(C(F)(F)F)cc2)nc(C(F)(F)F)c1 (stereo unspecified)
T

Request: What call does the record list for CCSc1ccc([C@@H]2[C@@H](O)C(=O)N2c2cc(OC)c(OC)c(OC)c2)cc1 ?
Response: F

Request: What call does the record list for COc1cc2c(cc1OC)C(=O)OC2 ?
Response: F

Request: What call does the record list for C=CCn1c(SCC(=O)Nc2ccc(/C(C)=N\O)cc2)nnc1-c1cc(-c2ccc(Cl)cc2)nc2ccccc12 ?
Response: F
